Test system: Mycobacterium tuberculosis
Assay notes: Antimicrobial activity against Mycobacterium tuberculosis H37Rv incubated for 48 hrs by microdilution broth method
Format: functional
Catalogue of MIC values
Supply the numeric figure in µg/mL, leaving out any unit text.

O=C1CC(Sc2ccc(F)cc2F)N1C(=O)Nc1ccccc1F (racemic)	25
O=C1CC(Sc2ccc([N+](=O)[O-])cc2)N1 (racemic)	25
O=C1CC(Oc2ccc([N+](=O)[O-])cc2)N1 (racemic)	25

Next compound, MIC to be filled in.
GET /values?item= COc1ccc(SC2CC(=O)N2C(=O)NCc2ccccc2)cc1 (racemic) &system= Mycobacterium tuberculosis returns MIC: 125

* * *

MIC for assorted compounds
Test system: Mycobacterium tuberculosis
Assay notes: Antimicrobial activity against Mycobacterium tuberculosis H37Rv incubated for 48 hrs by microdilution broth method
Assay type: functional

Please review the following examples before continuing.
O=C1CC(Sc2ccc(F)cc2F)N1C(=O)NCc1ccccc1 (racemic)	100 µg/mL
O=C1CC(Sc2ccccc2F)N1C(=O)NCc1ccccc1 (racemic)	3.13 µg/mL
O=C1CC(Sc2cc(C(F)(F)F)cc(C(F)(F)F)c2)N1 (racemic)	> 100 µg/mL

CSc1ccc(SC2CC(=O)N2)cc1 (racemic) has a reported MIC of > 100 µg/mL

According to the records, this compound O=C1CC(Sc2cccc3ccccc23)N1C(=O)NCc1ccccc1 (racemic) displays MIC of > 100 µg/mL

Input COc1cccc(SC2CC(=O)N2)c1 (racemic) . Output MIC: > 100 µg/mL

For reference, reported MIC for O=C1CC(Sc2ccccc2)N1C(=O)NC(c1ccccc1)c1ccccc1 (racemic) stands at 50 µg/mL

The measurements presented in this section are drawn from ChEMBL document CHEMBL3392996.
